Values were extracted from PubChem BioAssay (Tox21).

assay: cAMP Responsive Elements (CRE) small molecule antagonists, cell-based qHTS assay (AID 1963591); settings: CRE-bla HEK293T, beta-lactamase FRET ratio; series mostly up to 92.4 µM
Records with an inconclusive call do not appear. Activity calls are given as the source filed them. Calls follow the shape of the dose curve; as a rule, active = well fitted inhibition curve with a large enough effect in the signal ratio in the repeat runs (not every such curve was filed as active); inconclusive = weak or mixed curves, or effect the other way; inactive = flat fitted curve, though single readings scatter; the % refers to the signal ratio.
quantity: outcome

Examples with answers:
molecule	result
CCCCNC(N)=O	inactive
CC(=O)[C@H]1CC[C@H]2[C@@H]3CC=C4C[C@@H](O)CC[C@]4(C)[C@H]3CC[C@]12C	inactive
Cc1c(OCC(F)(F)F)ccnc1CS(=O)c1nc2ccccc2[nH]1 (configuration not stated)	inactive
OC[C@]1(O)OC[C@@H](O)[C@H](O)[C@@H]1O	inactive
CC(O)COCC(C)O (configuration not stated)	inactive
O=C(O)Cc1ccccc1Nc1c(Cl)cccc1Cl	inactive

Ask: What value of outcome has been reported for the following molecule? COC(=O)c1ccc(C)cc1
Result: inactive

###

test: p53 small molecule agonists, cell-based qHTS assay with human liver microsomes (AID 1963577); settings: HCT-116 p53RE-bla with human liver microsomes, ratio, 16 h; series mostly up to 66 µM;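 also: p53 response element beta-lactamase reporter cells with liver microsomes plus NADPH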
Results filed as inconclusive are left out. Active and inactive are the calls of the source. Calls come from the whole dose curve.
quantity: outcome

Worked set:
molecule	result
CCCCC(CC)COC(=O)/C=C/c1ccc(OC)cc1 (configuration not stated)	inactive
Cc1noc(NS(=O)(=O)c2ccc(N)cc2)c1C	inactive
C=C(C)C(=O)Nc1ccc(Cl)c(Cl)c1	inactive
CC1=NN(c2ccccc2)C(=O)C1	inactive
CC(=O)[C@H]1CC[C@H]2[C@@H]3CC=C4C[C@@H](O)CC[C@]4(C)[C@H]3CC[C@]12C	inactive
C/C=C/c1ccc(O)c(OC)c1	inactive

Next, consider the following molecule.
Ask: Find the recorded outcome belonging to Cc1ccc(O)cc1 and report it.
Result: inactive

###

Target: Beta-2 adrenergic receptor (Homo sapiens) (UniProt P07550)
Sequence (P07550 whole entry, looked up): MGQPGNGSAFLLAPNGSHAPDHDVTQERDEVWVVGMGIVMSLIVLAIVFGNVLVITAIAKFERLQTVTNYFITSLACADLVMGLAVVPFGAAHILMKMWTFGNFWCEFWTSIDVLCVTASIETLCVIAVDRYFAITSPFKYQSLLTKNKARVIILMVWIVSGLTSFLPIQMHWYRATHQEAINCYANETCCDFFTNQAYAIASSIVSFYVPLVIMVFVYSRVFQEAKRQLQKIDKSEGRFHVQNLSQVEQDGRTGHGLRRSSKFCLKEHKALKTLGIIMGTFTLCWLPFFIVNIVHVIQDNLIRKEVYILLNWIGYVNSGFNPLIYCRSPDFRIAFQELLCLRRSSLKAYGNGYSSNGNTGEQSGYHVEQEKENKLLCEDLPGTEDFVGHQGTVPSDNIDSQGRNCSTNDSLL
Test: Adrenergic beta2 receptor (ADRB2) small molecule agonists, cell-based qHTS assay (AID 1963593);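 also: CHO cells stably overexpressing human ADRB2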
Settings: CHO-ADRB2 cells, cAMP HTRF, 30 min; series mostly up to 92.4 µM
Excerpt: National Center for Advancing Translational Sciences [NCATS] Division of Preclinical Innovation [DPI] U.S. Environmental Protection Agency [EPA] National Institutes of Environmental Health Sciences [NIEHS] National Toxicology Program [NTP] U.S. Food and Drug Administration [FDA] Beta adrenergic receptors (Beta-ARs) belong to the G-protein coupled receptor (GPCR) superfamily, includes three subtypes - beta1, beta2, and beta3. […]
Results filed as inconclusive are left out. The source made the active and inactive calls. The call rests on the fitted dose curve.
quantity: activation

Below are worked cases with known answers.
given_smiles	activation
CC1=CC[C@H]2C[C@@H]1C2(C)C	inactive
CCCCCCOCCO	inactive
CCCCCCCCCCCCOC(=O)c1cc(O)c(O)c(O)c1	inactive
O=CCc1ccccc1	inactive
CC1(C)OC[C@@H]2O[C@@]3(C(=O)O)OC(C)(C)O[C@H]3[C@@H]2O1	inactive
O=C(c1ccccc1)c1ccc(O)c(O)c1O	inactive

Ask: Quick one: activation of CN/C(=C\[N+](=O)[O-])NCCSCc1csc(CN(C)C)n1 ?
Result: inactive

###

target: Muscarinic acetylcholine receptor M1 (Homo sapiens) (UniProt P11229); assay: Cholinergic receptor muscarinic 1 (CHRM1) small molecule antagonists, cell-based qHTS assay (AID 1963588); conditions: CHRM1-CHO antagonist mode, calcium flux fluorescence; series mostly up to 61.5 µM; also: nearly all actives have a fitted effect of over 40% in size
Sequence (P11229 whole entry, looked up): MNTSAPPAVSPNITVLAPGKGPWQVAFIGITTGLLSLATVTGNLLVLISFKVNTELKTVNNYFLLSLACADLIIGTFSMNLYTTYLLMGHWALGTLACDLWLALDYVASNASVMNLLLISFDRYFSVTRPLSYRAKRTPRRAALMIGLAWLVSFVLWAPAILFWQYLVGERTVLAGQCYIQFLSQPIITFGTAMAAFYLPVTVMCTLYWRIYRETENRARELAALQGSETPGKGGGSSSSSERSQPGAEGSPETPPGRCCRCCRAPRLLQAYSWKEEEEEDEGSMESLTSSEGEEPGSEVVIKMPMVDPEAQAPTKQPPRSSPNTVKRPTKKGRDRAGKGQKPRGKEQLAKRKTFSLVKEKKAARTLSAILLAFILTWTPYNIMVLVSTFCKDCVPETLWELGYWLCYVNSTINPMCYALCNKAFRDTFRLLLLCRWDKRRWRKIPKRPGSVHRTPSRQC
Results filed as inconclusive are left out. Calls of active or inactive are those of the source. Calls follow the shape of the full dose curve.
quantity: outcome

molecule	result
OCc1ccc(Cl)cc1Cl	inactive
Cc1ccc2c(n1)Oc1ccc(C(C)C(=O)OCC(=O)N(C)C)cc1C2 (stereo not given)	inactive
COC(=O)c1ccc(C)cc1	inactive
O=c1oc(=O)c2cc3c(=O)oc(=O)c3cc12	inactive
CCCCOCCO	inactive

Ask: Consider the molecule shown here: CC1CCC2CC1C2(C)C (stereo not given) What is its recorded outcome?
Result: inactive

Ask: GET /values?readout=outcome&item= Cc1ccc2c(c1)C(=O)OC2=O
Result: inactive

Ask: State the recorded outcome for this entry: CNC(=S)N(C)C
Result: inactive

Ask: What value of measured outcome is listed for CC(C)=CCO ?
Result: inactive

Ask: Could you share which outcome value was measured for CC(=O)OCC(=O)[C@@]12N=C(C)O[C@@H]1C[C@H]1[C@@H]3CCC4=CC(=O)C=C[C@]4(C)[C@H]3[C@@H](O)C[C@@]12C ?
Result: inactive

Ask: What does the record list as outcome for CCCOC(=O)NCCCN(C)C ?
Result: inactive

Ask: Value lookup for outcome; key = CCN(CC)C(=O)c1cccc(C)c1
Result: inactive

Ask: outcome lookup needed for CC1=CC2C3CC(C=C3C)C2C1 (stereo not given) , thanks.
Result: inactive

Ask: Which measured outcome value corresponds to O=CCc1ccccc1 ?
Result: inactive

Ask: Can you share its outcome? I mean this molecule: CCCCCCCCCCC=CC1CC(=O)OC1=O (stereo not given)
Result: inactive
